- target-entity: T1, cynomolgus monkey PVRIG (Novoprotein, Cat NO. C09B) (cynomolgus monkey, UniProt A0A2K5WVV8 41-171)
- T1 construct: also called cynomolgus monkey PVRIG protein
- T1 sequence: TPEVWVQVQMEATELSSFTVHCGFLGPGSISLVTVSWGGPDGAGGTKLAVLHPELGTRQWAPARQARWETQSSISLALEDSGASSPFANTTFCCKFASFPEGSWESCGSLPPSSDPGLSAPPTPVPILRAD
- procedure-details: ELISA, antigen coated
attribute-measured: % relative activity parental antibody/tested antibody (%)
Provide the reading as a plain figure in %.

Q: Name the reported % relative activity parental antibody/tested antibody value associated with the binder PVRIG-A50-H1d (Fc fusion, humanized variant of PVRIG-A50; also called A50.VH1d; not shown: constant part not restated for the humanized forms; parents are VHH-hinge-CH2-CH3 of human IgG1; detected by anti-human) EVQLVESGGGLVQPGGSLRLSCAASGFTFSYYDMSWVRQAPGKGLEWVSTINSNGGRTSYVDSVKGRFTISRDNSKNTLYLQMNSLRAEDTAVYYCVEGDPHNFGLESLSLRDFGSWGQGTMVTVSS
A: 111

Q: Now give it for PVRIG-A105-H3 (Fc fusion, humanized variant of PVRIG-A105; also called A105.VH3; not shown: constant part not restated for the humanized forms; parents are VHH-hinge-CH2-CH3 of human IgG1; detected by anti-human) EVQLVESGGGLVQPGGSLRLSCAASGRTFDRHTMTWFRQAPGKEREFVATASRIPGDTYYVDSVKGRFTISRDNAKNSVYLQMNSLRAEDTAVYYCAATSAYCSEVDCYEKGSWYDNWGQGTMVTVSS too.
A: 91.7

Q: Entry PVRIG-A118-H2 (Fc fusion, humanized variant of PVRIG-A118; also called A118.VH2; not shown: constant part not restated for the humanized forms; parents are VHH-hinge-CH2-CH3 of human IgG1; detected by anti-human) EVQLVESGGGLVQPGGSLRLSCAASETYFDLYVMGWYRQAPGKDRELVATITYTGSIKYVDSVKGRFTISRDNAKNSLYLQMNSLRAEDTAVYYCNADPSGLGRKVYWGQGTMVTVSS please
A: 4.55
